I'd appreciate it if you could supply IC50 values for the items below.
biological target: BIR3 domain of XIAP (Homo sapiens); construct: BIR3 domain, corresponding to amino acids 241-356 of XIAP; assay: TR-FRET assay for BIR3 (inhibition of binding of XIAP BIR3 domain to SMAC-derived Peptide A); settings: 6x Histidine-tagged BIR3 domain (amino acids 241-356 of XIAP) 10 nM, Peptide A 20 nM
Sequence (P98170 with tags, fused parts or gaps): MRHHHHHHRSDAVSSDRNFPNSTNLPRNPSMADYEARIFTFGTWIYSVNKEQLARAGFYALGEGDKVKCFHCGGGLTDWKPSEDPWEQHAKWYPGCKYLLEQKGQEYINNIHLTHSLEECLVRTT

1. CN[C@@H](C)C(=O)N[C@H](C(=O)N1c2ncccc2C[C@H]1C(=O)Nc1cc(F)cc(F)c1)C(C)C [Example 23] : > 54.8 µM
2. CN[C@@H](C)C(=O)N[C@H](C(=O)N1c2ncccc2C[C@H]1C(=O)NCC(F)(F)F)C(C)C [Example 37] : > 54.8 µM

Each molecule below has a reported value. Please supply its IC50.
1. CN[C@@H](C)C(=O)N[C@H](C(=O)N1c2ncccc2C[C@H]1C(=O)Nc1ccc(C(F)(F)F)cc1F)C(C)C [Example 59]
2. C[C@H](NCCO)C(=O)N[C@H](C(=O)N1c2ncccc2C[C@H]1C(=O)Nc1ccccc1)C1CCCCC1 [Example 91]
3. CN[C@@H](C)C(=O)N[C@H](C(=O)N1c2ncccc2C[C@H]1C(=O)Nc1cc(F)ccc1F)C(C)C [Example 61]
4. CN[C@@H](C)C(=O)N[C@H](C(=O)N1c2ncccc2C[C@H]1C(=O)Nc1cccc2ccccc12)C(C)C [Example 19]
5. CN[C@@H](C)C(=O)N[C@H](C(=O)N1c2ncccc2C[C@H]1C(=O)Nc1ccccc1Cl)C(C)C [Example 25]
6. [2H]C([2H])([2H])N[C@@H](CC)C(=O)N[C@H](C(=O)N1c2ncccc2C[C@H]1C(=O)Nc1ccccc1)C1CCCCC1 [Example 83]
7. CN[C@@H](C)C(=O)N[C@H](C(=O)N1c2ncccc2C[C@H]1C(=O)Nc1ccncc1F)C(C)C [Example 69]
8. CN[C@@H](C)C(=O)N[C@H](C(=O)N1c2ncccc2C[C@H]1C(=O)NCc1ccccc1)C(C)C [Example 16]

OUTPUT:
1. > 54.8 µM
2. > 54.8 µM
3. > 54.8 µM
4. 35.1 µM
5. > 54.8 µM
6. > 54.8 µM
7. > 54.8 µM
8. 3.95 µM

Each molecule below has a reported value. Please supply its IC50.
1. CN[C@@H](C)C(=O)N[C@H](C(=O)N1c2ncccc2C[C@H]1C(=O)Nc1ccc(F)cc1C)C(C)C [Example 22]
2. CN[C@@H](C)C(=O)N[C@H](C(=O)N1c2ncccc2C[C@H]1C(=O)Nc1ccc(OC)cc1F)C(C)C [Example 47]

OUTPUT:
["> 54.8 µM", "> 54.8 µM"]

Field: IC50. Fill in for each record below.
1. CN[C@@H](C)C(=O)N[C@H](C(=O)N1c2ncccc2C[C@@H]1C(=O)Nc1ccccc1)C1CCCCC1 [Example 79]
2. CN[C@@H](C)C(=O)N[C@H](C(=O)N1c2ncccc2C[C@H]1C(=O)NCc1cc(F)ccc1C)C(C)C [Example 55]

OUTPUT:
1. > 54.8 µM
2. 35.3 µM

###

Please provide measured pIC50 for the entries that follow.
Molecular target: BIR2 domain of XIAP (Homo sapiens, UniProt P98170, C202A/C213G)
Construct: 6× Histidine-tagged BIR2 domain, corresponding to amino acids 124-240 of XIAP
Sequence (P98170 with tags, fused parts or gaps C202A/C213G): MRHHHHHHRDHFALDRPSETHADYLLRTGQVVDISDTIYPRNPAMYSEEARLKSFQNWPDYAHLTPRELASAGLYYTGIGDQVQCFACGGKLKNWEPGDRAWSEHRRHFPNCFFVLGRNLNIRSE
Experiment: TR-FRET assay for BIR2 (inhibition of binding of XIAP BIR2 domain to SMAC-derived Peptide A)
Conditions: 6x Histidine-tagged BIR2 domain (amino acids 124-240 of XIAP) 10 nM, Peptide A 20 nM
Procedure: TR-FRET Assay for BIR2 and BIR3 […] The peptides were labeled with the fluorescent tags FITC or TAMRA and Kd values were determined by fluorescence polarization assay. […] Time-resolved fluorescence resonance energy transfer (TR-FRET) signals were measured 1 hour later at room temperature. Test compound potency was assessed at 10 serially diluted concentrations. Percentage of inhibition at each concentration was determined to generate an IC50 value for each test compound.
One number for each entry, as −log10 of the molar value.

Here is how some molecules turned out for pIC50.
1) CN[C@@H](C)C(=O)N[C@H](C(=O)N1c2ncccc2C[C@H]1C(=O)Nc1ccc(C)cc1F)C(C)C : 8.39
2) CN[C@@H](C)C(=O)N[C@H](C(=O)N1c2ncccc2C[C@H]1C(=O)Nc1cccc(F)c1F)C(C)C : 7.42
3) CN[C@@H](C)C(=O)N[C@H](C(=O)N1c2ncccc2C[C@H]1C(=O)Nc1ccc(C(F)(F)F)cc1F)C(C)C : 7.27
4) CN[C@@H](C)C(=O)N[C@H](C(=O)N1c2ncccc2C[C@H]1C(=O)Nc1cc(F)ccc1F)C(C)C : 7.46
5) CN[C@@H](C)C(=O)N[C@H](C(=O)N1c2ncccc2C[C@H]1C(=O)Nc1ccc(F)cc1C)C(C)C : 6.99
6) CN[C@@H](C)C(=O)N[C@H](C(=O)N1c2ncccc2C[C@H]1C(=O)Nc1cccc(F)c1)C(C)C : 6.65

Attention now shifts to the item below.
INPUT: What pIC50 value was documented for this molecule, CN[C@@H](C)C(=O)N[C@H](C(=O)N1c2ncccc2C[C@H]1C(=O)Nc1ccccc1OC)C(C)C ?
OUTPUT: 7.08
